Reported IC50 against Platelet-derived growth factor receptor beta (Homo sapiens, UniProt P09619), gathered from multiple publications, appears below.
Sequence (P09619 whole entry): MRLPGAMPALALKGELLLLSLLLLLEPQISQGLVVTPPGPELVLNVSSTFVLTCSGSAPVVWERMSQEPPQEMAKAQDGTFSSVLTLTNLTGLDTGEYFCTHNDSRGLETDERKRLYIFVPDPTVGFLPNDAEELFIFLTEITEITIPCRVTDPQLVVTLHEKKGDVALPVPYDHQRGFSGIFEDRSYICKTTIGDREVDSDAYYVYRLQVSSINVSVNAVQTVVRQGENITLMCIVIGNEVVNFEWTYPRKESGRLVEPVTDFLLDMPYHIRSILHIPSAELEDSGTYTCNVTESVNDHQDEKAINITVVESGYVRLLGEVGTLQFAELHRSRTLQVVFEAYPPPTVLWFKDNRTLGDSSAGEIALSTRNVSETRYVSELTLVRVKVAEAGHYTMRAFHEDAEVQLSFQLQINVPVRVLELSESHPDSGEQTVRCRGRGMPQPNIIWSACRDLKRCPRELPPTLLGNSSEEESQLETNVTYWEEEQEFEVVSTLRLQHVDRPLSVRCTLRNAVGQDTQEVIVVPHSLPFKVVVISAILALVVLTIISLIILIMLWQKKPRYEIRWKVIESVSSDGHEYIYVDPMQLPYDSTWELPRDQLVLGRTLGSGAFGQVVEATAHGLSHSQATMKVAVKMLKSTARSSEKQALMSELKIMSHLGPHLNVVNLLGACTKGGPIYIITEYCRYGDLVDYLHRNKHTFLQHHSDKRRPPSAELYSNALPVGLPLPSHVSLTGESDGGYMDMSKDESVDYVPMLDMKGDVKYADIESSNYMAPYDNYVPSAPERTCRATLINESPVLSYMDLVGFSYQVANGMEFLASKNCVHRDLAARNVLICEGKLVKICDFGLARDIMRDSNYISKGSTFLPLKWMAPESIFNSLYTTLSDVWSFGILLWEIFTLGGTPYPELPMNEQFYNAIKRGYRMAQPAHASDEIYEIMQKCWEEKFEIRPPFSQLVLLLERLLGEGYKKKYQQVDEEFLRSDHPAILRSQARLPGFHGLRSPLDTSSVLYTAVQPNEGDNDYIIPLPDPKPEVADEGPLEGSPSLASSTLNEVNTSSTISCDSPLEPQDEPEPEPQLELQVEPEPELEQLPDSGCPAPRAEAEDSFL

Here is how some compounds turned out for IC50.
INSERT INTO assay_data (compound, measured_quantity, observed_result) VALUES
  ('COc1cc2c(cc1OC)-c1n[nH]c(Nc3cccc(C(=O)O)c3)c1C2', 'IC50', '> 0.8 µM'),
  ('COC(=O)c1c(OCCN2CCCC2)c2ccccc2c2oc3c(c12)C(=O)c1ccccc1C3=O', 'IC50', '8.7 µM'),
  ('COc1cc2ncnc(Oc3ccc(CC(=O)Nc4cn[nH]c4)cc3)c2cc1OC', 'IC50', '> 2 µM'),
  ('CONC(=O)c1cc(Nc2ncnn3cc(-c4nnc(C)o4)c(C(C)C)c23)c(F)cc1F', 'IC50', '> 2 µM');

Now for the compound whose IC50 we want.
Query :: Any idea what its IC50 is? The compound is Cc1cc(-c2n[nH]c3ccc(C(=O)NC(C)c4c(Cl)cncc4Cl)cc23)ccn1 (stereo not given)
Result :: > 1 µM
